species on record: Rattus norvegicus; test: Inhibition of [3H]5-HT uptake into rat brain synaptosomes in vitro Values ranges from: 0.3-0.5; assay type: functional

| smiles.representation | IC50 |
| --- | --- |
| CC1=C(CC2=NCCN2)CCc2ccccc21.Cl | 400 nM |

###

species: Rattus norvegicus; assay: Inhibition of [3H]dopamine uptake into rat brain synaptosomes in vitro;Value ranges from:2.5-4.5; assay type: functional

| molecule | IC50, µM |
| --- | --- |
| C1=C(CC2=NCCN2)CCc2ccccc21.Cl [NAPAMEZOLE HYDROCHLORIDE] | 3.3 |

###

target: Adrenergic receptor alpha-2 (Rattus norvegicus, UniProt P22086+P19328+P22909); assay: Ability to displace [3H]clonidine from alpha-2 adrenergic receptor in rat brain homogenates in vitro; format: tissue-based
measurement.kind: log10 Ki (log10 of the value in nM)

| compound | log10 Ki |
| --- | --- |
| CC1=C(CC2=NCCN2)Cc2ccccc21.Cl | 0.84 |
| C[C@H]1c2ccccc2CC[C@@H]1CC1=NCCN1.Cl | 2.60 |
| CC1=C(CC2=NCCCN2)CCc2ccccc21.Cl | 2.52 |
| CC1=C(Cc2ncc[nH]2)CCc2ccccc21 | 1.94 |
| CC1=C(CC2=NCCN2C)CCc2ccccc21.Cl | 2.64 |
| Cc1c(CC2=NCCN2)ccc2ccccc12.Cl | 0.82 |
| CCN1CCN=C1CC1=C(C)c2ccccc2CC1.Cl | 2.74 |
| Cl.c1ccc2cc(CC3=NCCN3)ccc2c1 | 1.68 |
| CC(C1=Cc2ccccc2CC1)C1=NCCN1.Cl (centres undefined) | 1.51 |
| CC1=C(CC2=NCCN2)CCc2ccccc21.Cl | 1.08 |
| C[C@@H]1c2ccccc2CC[C@@H]1CC1=NCCN1.Cl | 2.13 |
| C1=C(CC2=NCCN2)Cc2ccccc21.Cl | 1.88 |
| C1=C(CC2=NCCN2)CCc2ccccc21.Cl [NAPAMEZOLE HYDROCHLORIDE] | 1.36 |
